These measurements were taken from patent US4599331A.

- Tested on: Hamster Melanoma RPM1 1846 tumor cells
- method notes: Inhibition of tumor growth (2 week assay)
- Type: in vivo, Male Syrian Golden hamsters
- measurement setup: Table 3, dose 0.8 mg/kg, untreated 40.7 ± 16.2 [A], 27.5 ± 15.3 [B]
endpoint label: Tumor area Mn (mm^2)
Write the answer as a number in mm^2, unit excluded.

- compound: "CCCCC(=O)O[C@]1(C(=O)OC)[C@H](C)C[C@H]2[C@@H]3CC(F)C4=CC(=O)C=C[C@]4(C)[C@@]3(F)[C@@H](O)C[C@@]21C (stereo partly shown)"
  test system: "Hamster Melanoma RPM1 1846 tumor cells"
  data value: 22.5
- compound: "CCCC(=O)O[C@]1(C(=O)OC)[C@H](C)C[C@H]2[C@@H]3CC(F)C4=CC(=O)C=C[C@]4(C)[C@@]3(F)[C@@H](O)C[C@@]21C (stereo partly shown)"
  test system: "Hamster Melanoma RPM1 1846 tumor cells"
  data value: 5.7
- compound: "CCCC(=O)O[C@]1(C(=O)SC)[C@@H](C)C[C@H]2[C@@H]3CC(F)C4=CC(=O)C=C[C@]4(C)[C@@]3(F)[C@@H](O)C[C@@]21C (stereo partly shown)"
  test system: "Hamster Melanoma RPM1 1846 tumor cells"
  data value: 9.1

# input for lookup
Find the recorded Tumor area Mn (mm^2) belonging to CCC(=O)O[C@]1(C(=O)OC)[C@@H](C)C[C@H]2[C@@H]3CC(F)C4=CC(=O)C=C[C@]4(C)[C@@]3(F)[C@@H](O)C[C@@]21C (stereo partly shown) and report it.
11.6
